- assayed target: Adenosine receptor A2b (Homo sapiens)
- test method notes: Displacement of [3H]-DPCPX from Adenosine A2b receptor expressed in CHO cells; range 50-63
- Assay type: cell-based
- particulars: in the assay text read “HEK-293 cells” for “CHO cells”
pKi: −log10 of the molar value.
readout kind: pKi

INSERT INTO results (sample_smiles, result_value) VALUES
  ('CCCn1cc2c(nc(NC(=O)Nc3cccc(Cl)c3)n3nc(-c4ccco4)nc23)n1', 7.24);

###

- assayed target: Adenosine receptor A1 (Homo sapiens, UniProt P30542)
- test method notes: Displacement of [3H]DPCPX from human adenosine A1 receptor expressed in CHO cells; range 365-550
- Format: cell-based
readout kind: Ki

INSERT INTO results (sample_smiles, result_value) VALUES
  ('COc1ccc(NC(=O)Nc2nc3n[nH]cc3c3nc(-c4ccco4)nn23)cc1', '0.448 µM');

###

- assayed target: Adenosine receptors; A1 & A3 (Homo sapiens) (UniProt P30542+P0DMS8)
- test method notes: Ratio of binding affinity of human A1 receptor to that of human A3 receptor
- Format: protein assay
Recorded Ratio for the following molecules
readout kind: Ratio

INSERT INTO assay_data (sample_smiles, result_value) VALUES
  ('CCCCn1cc2c(nc(NC(=O)Nc3ccc(OC)cc3)n3nc(-c4ccco4)nc23)n1', 925),
  ('Cn1cc2c(nc(NC(=O)Nc3cccc(Cl)c3)n3nc(-c4ccco4)nc23)n1', 875),
  ('Nc1nc2nn(CCc3ccccc3)cc2c2nc(-c3ccco3)nn12', 0.003),
  ('Nc1nc2nn(CCCc3ccccc3)cc2c2nc(-c3ccco3)nn12', 0.007);

###

- assayed target: UniProtKB P29274
- test method notes: Displacement of [3H]-SCH- 58261 from human adenosine A2A receptor expressed in CHO cells; range 85-164
- Assay type: cell-based
readout kind: Ki (nM)

INSERT INTO assay_data (sample_smiles, assayed_target, result_value) VALUES
  ('CC(C)CCn1cc2c(nc(NC(=O)Nc3cccc(Cl)c3)n3nc(-c4ccco4)nc23)n1', 'UniProtKB P29274', 115);

###

- assayed target: Adenosine receptor A2a (Homo sapiens)
- test method notes: Displacement of [3H]-SCH- 58261 from human adenosine A2A receptor expressed in CHO cells; range 632-1003
- Format: cell-based
pKi: −log10 of the molar value.
readout kind: pKi

INSERT INTO measurements (sample_smiles, readout_kind, result_value) VALUES
  ('CC(C)(C)n1cc2c(nc(NC(=O)Nc3cccc(Cl)c3)n3nc(-c4ccco4)nc23)n1', 'pKi', 6.10);

###

- assayed target: Adenosine receptor A2b (Homo sapiens, UniProt P29275)
- Sequence (P29275 whole entry): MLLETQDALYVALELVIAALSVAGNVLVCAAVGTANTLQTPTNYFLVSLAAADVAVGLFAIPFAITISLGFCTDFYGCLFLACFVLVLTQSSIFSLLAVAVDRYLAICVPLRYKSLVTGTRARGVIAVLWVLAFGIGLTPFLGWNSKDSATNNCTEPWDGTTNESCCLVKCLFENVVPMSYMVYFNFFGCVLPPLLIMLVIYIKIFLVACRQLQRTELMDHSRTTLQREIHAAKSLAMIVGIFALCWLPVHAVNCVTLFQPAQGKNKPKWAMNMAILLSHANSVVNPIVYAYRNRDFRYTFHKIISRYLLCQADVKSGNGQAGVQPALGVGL
- test method notes: Tested for inhibitory activity against Adenosine A2b receptor by displacement of [3H]DPCPX expressed in […]; value ranges from 61-80
- Format: cell-based
readout kind: Ki (nM)

INSERT INTO measurements (sample_smiles, result_value) VALUES
  ('O=C(Nc1cccc(Cl)c1)Nc1nc2n[nH]cc2c2nc(-c3ccco3)nn12', 70);

###

- assayed target: Adenosine receptor A3 (Homo sapiens, UniProt P0DMS8)
- Sequence (P0DMS8 whole entry): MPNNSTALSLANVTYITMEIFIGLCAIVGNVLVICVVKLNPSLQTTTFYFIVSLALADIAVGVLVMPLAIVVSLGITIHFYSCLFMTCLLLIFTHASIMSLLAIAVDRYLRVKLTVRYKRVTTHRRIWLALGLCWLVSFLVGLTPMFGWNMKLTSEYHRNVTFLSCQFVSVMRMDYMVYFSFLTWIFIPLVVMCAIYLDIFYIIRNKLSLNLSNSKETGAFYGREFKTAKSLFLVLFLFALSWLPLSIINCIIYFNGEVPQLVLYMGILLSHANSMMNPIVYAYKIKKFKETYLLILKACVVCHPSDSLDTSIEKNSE
- test method notes: Displacement of [3H]MRE3008-F20 from human adenosine A3 receptor expressed in CHO cells; range 7.2-8.9
- Assay type: cell-based
readout kind: Ki

INSERT INTO assay_data (sample_smiles, result_value) VALUES
  ('O=C(Nc1cccc(Cl)c1)Nc1nc2nn(CCc3ccccc3)cc2c2nc(-c3ccco3)nn12', '8 nM');

###

- assayed target: Adenosine receptor A2a (Homo sapiens, UniProt P29274)
- Sequence (P29274 whole entry): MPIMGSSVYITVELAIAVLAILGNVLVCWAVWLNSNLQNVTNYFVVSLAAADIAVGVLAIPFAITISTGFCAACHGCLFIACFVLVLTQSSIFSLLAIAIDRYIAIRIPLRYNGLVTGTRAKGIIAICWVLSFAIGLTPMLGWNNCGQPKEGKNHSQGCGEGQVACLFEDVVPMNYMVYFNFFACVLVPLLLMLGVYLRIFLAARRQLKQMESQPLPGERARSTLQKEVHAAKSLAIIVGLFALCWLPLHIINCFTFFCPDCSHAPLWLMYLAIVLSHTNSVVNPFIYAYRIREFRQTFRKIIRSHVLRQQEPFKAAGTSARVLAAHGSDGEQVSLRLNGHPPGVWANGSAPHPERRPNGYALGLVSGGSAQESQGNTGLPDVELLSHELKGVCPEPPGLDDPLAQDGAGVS
- test method notes: Displacement of [3H]-SCH- 58261 from human adenosine A2A receptor expressed in CHO cells; range 1.4-2.1
- Format: cell-based
pKi: −log10 of the molar value.
readout kind: pKi

INSERT INTO measurements (sample_smiles, readout_kind, result_value) VALUES
  ('CCCCn1cc2c(nc(N)n3nc(-c4ccco4)nc23)n1', 'pKi', 8.80);

###

- assayed target: Adenosine receptor A1 (Homo sapiens, UniProt P30542)
- test method notes: Displacement of [3H]DPCPX from human adenosine A1 receptor expressed in CHO cells; range 4.72-6.23
- Format: cell-based
readout kind: Ki (nM)

INSERT INTO results (sample_smiles, readout_kind, units_label, result_value) VALUES
  ('CC(C)=CCn1cc2c(nc(N)n3nc(-c4ccco4)nc23)n1', 'Ki', 'nM', 5.42);

###

- assayed target: Adenosine receptor A2a (Homo sapiens, UniProt P29274)
- test method notes: Displacement of [3H]-SCH- 58261 from human adenosine A2A receptor expressed in CHO cells; range 850-1230
- Format: cell-based
readout kind: Ki (nM)

INSERT INTO measurements (sample_smiles, assayed_target, units_label, result_value) VALUES
  ('COc1ccc(NC(=O)Nc2nc3nn(CC=C(C)C)cc3c3nc(-c4ccco4)nn23)cc1', 'Adenosine receptor A2a (Homo sapiens, UniProt P29274)', 'nM', 1020);

###

- assayed target: Adenosine receptor A2b (Homo sapiens)
- Sequence (P29275 whole entry): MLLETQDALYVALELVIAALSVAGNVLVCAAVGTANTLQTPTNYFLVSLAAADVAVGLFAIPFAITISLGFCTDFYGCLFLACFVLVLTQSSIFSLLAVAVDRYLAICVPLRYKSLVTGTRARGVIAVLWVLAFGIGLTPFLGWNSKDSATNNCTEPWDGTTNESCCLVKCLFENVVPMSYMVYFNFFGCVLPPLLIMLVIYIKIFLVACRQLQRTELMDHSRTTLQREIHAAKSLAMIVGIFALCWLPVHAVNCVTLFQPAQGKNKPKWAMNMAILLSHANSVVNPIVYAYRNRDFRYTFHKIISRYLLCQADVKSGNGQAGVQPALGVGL
- test method notes: Displacement of [3H]DPCPX from Adenosine A2b receptor expressed in […]; range 1681-1961
- Assay type: cell-based
readout kind: Ki (µM)

INSERT INTO measurements (sample_smiles, units_label, result_value) VALUES
  ('O=C(Nc1cccc(Cl)c1)Nc1nc2nn(CCc3cc(Br)c(Br)cc3Br)cc2c2nc(-c3ccco3)nn12', 'µM', 1.82);

###

- assayed target: UniProtKB P29275
- Sequence (P29275 whole entry): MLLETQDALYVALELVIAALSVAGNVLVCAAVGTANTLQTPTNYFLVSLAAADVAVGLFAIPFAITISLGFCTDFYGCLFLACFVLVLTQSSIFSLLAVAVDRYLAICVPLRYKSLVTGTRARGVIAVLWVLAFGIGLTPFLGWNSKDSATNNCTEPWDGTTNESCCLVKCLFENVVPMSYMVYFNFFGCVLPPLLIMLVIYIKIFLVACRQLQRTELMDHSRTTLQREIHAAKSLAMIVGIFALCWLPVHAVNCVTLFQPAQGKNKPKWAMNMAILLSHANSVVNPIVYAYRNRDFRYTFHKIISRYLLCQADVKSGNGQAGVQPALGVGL
- test method notes: Displacement of [3H]-DPCPX from Adenosine A2b receptor expressed in […]; range 52-65
- Type: cell-based
pKi: −log10 of the molar value.
readout kind: pKi

INSERT INTO results (sample_smiles, readout_kind, result_value) VALUES
  ('COc1ccc(NC(=O)Nc2nc3nn(CC=C(C)C)cc3c3nc(-c4ccco4)nn23)cc1', 'pKi', 7.24);

###

- assayed target: UniProt:P30542
- Sequence (P30542 whole entry): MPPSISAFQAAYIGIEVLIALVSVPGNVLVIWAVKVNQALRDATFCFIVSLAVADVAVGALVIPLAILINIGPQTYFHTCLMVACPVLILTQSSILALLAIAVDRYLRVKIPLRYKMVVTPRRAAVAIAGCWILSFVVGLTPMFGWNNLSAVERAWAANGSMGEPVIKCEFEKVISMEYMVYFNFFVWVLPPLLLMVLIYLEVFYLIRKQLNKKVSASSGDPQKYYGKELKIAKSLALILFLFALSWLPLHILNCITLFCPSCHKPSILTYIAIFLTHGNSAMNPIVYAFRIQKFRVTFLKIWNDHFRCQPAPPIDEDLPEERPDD
- test method notes: Displacement of [3H]DPCPX from human adenosine A1 receptor expressed in CHO cells; range 179-317
- Type: cell-based
readout kind: Ki (nM)

INSERT INTO results (sample_smiles, result_value) VALUES
  ('O=C(Nc1cccc(Cl)c1)Nc1nc2n[nH]cc2c2nc(-c3ccco3)nn12', 238);
